- Test system: HOP-92 NSCLC
- protocol_summary: NCI tumour cell line growth inhibition, 48 h; in the data active means GI50 below about 0.43 µM; inactive means the rest
Please reply with one of these outcomes: active, inactive

Field: outcome | Entry: "Cc1cc(I)cc(CN(CCCN(C)C)C(C)C)c1O"
inactive

Field: outcome | Entry: "N#Cc1c[nH]n2c(N=Nc3ccc(Cl)cc3)c(O)nc12"
inactive

Field: outcome | Entry: "CCN(C(=O)N1CCN(c2cc3c(cc2F)c(=O)c(C(=O)O)cn3C2CC2)CC1)c1nc(-c2ccc(Cl)cc2)cs1"
inactive

Field: outcome | Entry: "CCC(=C/[C@H](C)C/C=C/C(C)=C/[C@@H](C)C(=O)[C@@H](C)[C@H](O)[C@@H](C)CC)/C=C/[C@H]1OC(=O)C=C[C@@H]1C"
active

Field: outcome | Entry: "COc1ccc(/C=N/NC(=O)c2cccc3cc[nH]c23)cc1O"
inactive

----------
- Tested on: SK-OV-3 ovarian
- protocol_summary: NCI tumour cell line growth inhibition, 48 h
Here, each record is paired with measured TGI data.

Answered cases to consult:
Fill in the blank: the reported TGI of "Cc1ccnc(NS(=O)(=O)c2ccc(N=[N+]=[N-])cc2)n1" is ____.
> 100 µM

Fill in the blank: the reported TGI of "COc1nncc2[nH]c(-c3ccccc3)cc12" is ____.
> 100 µM

New cases:
Fill in the blank: the reported TGI of "O=[N+]([O-])c1ccc(Cl)cc1N/N=C/c1ccnc2ccccc12" is ____.
> 100 µM

Fill in the blank: the reported TGI of "CC(C)=CCC[C@@H](C)c1c(O)c(O)c(C)c2nccnc12" is ____.
> 100 µM

Fill in the blank: the reported TGI of "CCN(Cc1ccc(F)cc1)c1cc(Cl)c(CO)c(Cl)c1" is ____.
28.7 µM

Fill in the blank: the reported TGI of C/C(=C\CBr)CCC(Br)C(C)(C)Br (stereo unspecified) is ____.
> 100 µM

----------
Here, each record is paired with measured TGI data.
- System: HOP-92 NSCLC
- protocol_summary: NCI tumour cell line growth inhibition, 48 h
// units = µM; emit number, no label

Fill in the blank: the reported TGI of "C=CC1(CC/C(=C\[N+](=O)[O-])c2ccc(OC)c(OC)c2)OCC(C)(C)CO1" is ____.
54.8

New cases:
Fill in the blank: the reported TGI of C[C@]12CCC3C4=C(CCC3C1CCC2=O)C(=O)[C@H]1O[C@H]1C4=O (stereo partly specified) is ____.
16.8

Fill in the blank: the reported TGI of "CCN(C(=O)N1CCN(c2cc3c(cc2F)c(=O)c(C(=O)O)cn3C2CC2)CC1)c1nc(-c2ccc(Cl)cc2)cs1" is ____.
4.8

Fill in the blank: the reported TGI of Cc1ccc(NC(=O)CC2Sc3ccccc3NC2=O)cc1C (stereo unspecified) is ____.
95.8

Fill in the blank: the reported TGI of "NS(=O)(=O)c1nnc(NC(=O)Nc2ccc(Cl)c(Cl)c2)s1" is ____.
42.3

----------
- System: SK-MEL-2 melanoma
- protocol_summary: NCI tumour cell line growth inhibition, 48 h
observable: TGI

Answered cases to consult:
Fill in the blank: the reported TGI of CC(C)c1cc2c(cc1S(=O)(=O)O)[C@@]1(C)CCC[C@@](C)(C(=O)O)C1CC2 (some centres undefined) is ____.
> 100 µM

Fill in the blank: the reported TGI of "O=c1ccc2ccccc2cc1[O-].O=c1ccc2ccccc2cc1[O-].[O]=[U+2]=[O]" is ____.
38.1 µM

Fill in the blank: the reported TGI of "O=C(/C=C/c1ccc2c(c1)OCO2)c1ccc(O)cc1" is ____.
32.7 µM

Fill in the blank: the reported TGI of "O=C(/C=C/c1ccc([N+](=O)[O-])cc1)c1ccc(NCc2nc3ccccc3[nH]2)cc1" is ____.
29.7 µM

New cases:
Fill in the blank: the reported TGI of "Cc1cc(C)nc(NS(=O)(=O)c2ccc(NC(=O)c3ccc4nc5ccccc5c(Nc5ccc(S(N)(=O)=O)cc5)c4c3)cc2)n1" is ____.
> 100 µM

Fill in the blank: the reported TGI of "COc1cc(-c2ccc3cc(OC)c(OC)c(OC)c3c2)cc(OC)c1OC" is ____.
> 100 µM

Fill in the blank: the reported TGI of "COC(=O)C1=C(C(=O)OC)SC(=C2SCSC3=C2SC(C(=O)OC)=C(C(=O)OC)C32SC3=C(CCCC3)S2)S1" is ____.
> 100 µM

Fill in the blank: the reported TGI of "COc1ccc(N=NC(=Nc2ccccc2)c2ccc(N(CCC#N)CCC#N)cc2)cc1" is ____.
> 100 µM

Fill in the blank: the reported TGI of "CC(=O)c1c2c(c3ccccc3c1O)O[C@@H]1OCC[C@H]21" is ____.
> 100 µM
